# System: liver cancer cell line SMMC7721
# assay.protocol: MTT cancer cell cytotoxicity assay, SMMC7721
# Type: cell-based, human
# test.settings: Homo sapiens, SMMC-7721, SMMC7721 cells, 48-72 h
pIC50: −log10 of the molar value. Structures can show the parent of a compound that is named as a salt.

compound: COc1ccccc1-c1nnc2ccc(-c3cccc(N)c3)cn12 [Example 45, hydrochloride]
modifier.sign: =
pIC50: 6.08
//
compound: COc1ccccc1-c1nnc2ccc(-c3ccc(N(C)C)cc3)cn12 [Example 17]
modifier.sign: =
pIC50: 7.85
//
compound: COc1ccccc1-c1nnc2ccc(-c3cc(OC)c(OC)c(OC)c3)cn12 [Example 29]
modifier.sign: <
pIC50: 5.00
//
compound: COc1ccc(-c2ccc3nnc(-c4ccccc4OC)n3c2)c(OC)c1 [Example 36]
modifier.sign: =
pIC50: 7.54
//
compound: COc1ccc(-c2ccc3nnc(-c4ccccc4OC)n3c2)cc1O [Example 20]
modifier.sign: <
pIC50: 5.00

* * *

# System: breast cancer cell line T47D
# assay.protocol: MTT cancer cell cytotoxicity assay, T47D
# Assay type: cell-based, human
# test.settings: Homo sapiens, T47D cells, 48-72 h
Counter-ions that a name gives are not always drawn.
Readings of log10(IC50) for the listed compounds
recorded.endpoint: log10(IC50) (log10 of the value in nM)

compound: CNc1ccccc1-c1nnc2ccc(-c3ccc(OC)cc3)cn12 [Example 79]
assayed.system: breast cancer cell line T47D
log10(IC50): 1.86

compound: COc1ccc(-c2ccc3nnc(-c4ccccc4OC)n3c2)cn1 [Example 15]
assayed.system: breast cancer cell line T47D
log10(IC50): 3.30

compound: COc1ccc(-c2ccc3nnc(-c4cc(C)ccc4OC)n3c2)cc1 [Example 76]
assayed.system: breast cancer cell line T47D
log10(IC50): 2.80

compound: COc1ccccc1-c1nnc2ccc(-c3ccc(C)c(F)c3)cn12 [Example 33]
assayed.system: breast cancer cell line T47D
log10(IC50): 2.91

compound: COc1ccc(-c2ccc3nnc(-c4ccccc4N(C)C)n3c2)cc1 [Example 80]
assayed.system: breast cancer cell line T47D
log10(IC50): 1.79

compound: COc1ccccc1-c1nnc2ccc(-c3cc(C)c(OC)c(C)c3)cn12 [Example 30]
assayed.system: breast cancer cell line T47D
log10(IC50): 3.71

compound: COc1ccc(-c2ccc3nnc(-c4ccccc4OC)n3c2)cc1Cl [Example 26]
assayed.system: breast cancer cell line T47D
log10(IC50): 1.72

compound: CCc1ccc(-c2ccc3nnc(-c4ccccc4OC)n3c2)cc1 [Example 7]
assayed.system: breast cancer cell line T47D
log10(IC50): 2.20

compound: COc1ccccc1-c1nnc2ccc(-c3ccc(O)cc3)cn12 [Example 13]
assayed.system: breast cancer cell line T47D
log10(IC50): 2.82

compound: CNc1ccc(-c2ccc3nnc(-c4ccccc4OC)n3c2)cc1 [Example 48, hydrochloride]
assayed.system: breast cancer cell line T47D
log10(IC50): 1.26

compound: COc1cc(Cl)ccc1-c1nnc2ccc(-c3ccc(C)c(N)c3)cn12 [Example 90]
assayed.system: breast cancer cell line T47D
log10(IC50): 0.74

compound: COc1cc(-c2ccc3nnc(-c4ccccc4OC)n3c2)ccc1O [Example 56]
assayed.system: breast cancer cell line T47D
log10(IC50): 3.17

compound: COc1ccc(-c2ccc3nnc(-c4c(F)cccc4OC)n3c2)cc1 [Example 63]
assayed.system: breast cancer cell line T47D
log10(IC50): 2.17

compound: COc1ccccc1-c1nnc2ccc(-c3ccc(N(C)C)cc3)cn12 [Example 17]
assayed.system: breast cancer cell line T47D
log10(IC50): 1.81

compound: COc1cc(-c2ccc3nnc(-c4ccccc4OC)n3c2)ccc1C [Example 28]
assayed.system: breast cancer cell line T47D
log10(IC50): 2.69

compound: COc1ccc(-c2ccc3nnc(-c4ccc(Cl)cc4OC)n3c2)cc1O [Example 89]
assayed.system: breast cancer cell line T47D
log10(IC50): -0.08

compound: COc1ccc(-c2ccc3nnc(-c4ccccc4C)n3c2)cc1 [Example 78]
assayed.system: breast cancer cell line T47D
log10(IC50): 2.11

compound: COc1ccccc1-c1nnc2ccc(-c3ccc(OC(C)C)cc3)cn12 [Example 6]
assayed.system: breast cancer cell line T47D
log10(IC50): 2.84

compound: COc1ccc(-c2ccc3nnc(-c4ccccc4OC)n3c2)cc1 [Example 1]
assayed.system: breast cancer cell line T47D
log10(IC50): 1.57

compound: COc1ccccc1-c1nnc2ccc(-c3ccc(C)cc3C)cn12 [Example 25]
assayed.system: breast cancer cell line T47D
log10(IC50): 2.62

compound: CCOc1ccc(-c2ccc3nnc(-c4ccccc4OC)n3c2)cc1 [Example 38]
assayed.system: breast cancer cell line T47D
log10(IC50): 1.87

compound: COc1ccc(-c2ccc3nnc(-c4cc(OC)ccc4OC)n3c2)cc1 [Example 62]
assayed.system: breast cancer cell line T47D
log10(IC50): 2.19

compound: COc1ccc(-c2ccc3nnc(-c4ccccc4OC)n3c2)c(C)c1 [Example 8]
assayed.system: breast cancer cell line T47D
log10(IC50): 2.01

compound: COc1ccc(-c2ccc3nnc(-c4ccccc4OC(F)(F)F)n3c2)cc1 [Example 67]
assayed.system: breast cancer cell line T47D
log10(IC50): 2.52

compound: COc1ccccc1-c1nnc2ccc(-c3ccc(C(F)(F)F)cc3)cn12 [Example 27]
assayed.system: breast cancer cell line T47D
log10(IC50): 3.63

compound: COc1ccccc1-c1nnc2ccc(-c3ccc(C)c(Cl)c3)cn12 [Example 19]
assayed.system: breast cancer cell line T47D
log10(IC50): 2.23

compound: COc1ccc(-c2ccc3nnc(-c4ccc(Cl)cc4OC)n3c2)cc1F [Example 49]
assayed.system: breast cancer cell line T47D
log10(IC50): 0.65

compound: COc1ccc(-c2ccc3nnc(-c4cccc(OC)c4OC)n3c2)cc1 [Example 73]
assayed.system: breast cancer cell line T47D
log10(IC50): 3.73

compound: COc1ccc(-c2ccc3nnc(-c4ccc(Cl)cc4OC)n3c2)cc1 [Example 57]
assayed.system: breast cancer cell line T47D
log10(IC50): 0.61

compound: COc1ccccc1-c1nnc2ccc(-c3ccc4c(c3)OCO4)cn12 [Example 14]
assayed.system: breast cancer cell line T47D
log10(IC50): 3.16

compound: COc1ccccc1-c1nnc2ccc(-c3cccc(C)c3)cn12 [Example 23]
assayed.system: breast cancer cell line T47D
log10(IC50): 2.13

compound: COc1ccc(-c2ccc3nnc(-c4ccc(C)cc4OC)n3c2)cc1O [Example 51]
assayed.system: breast cancer cell line T47D
log10(IC50): 0.04

compound: COc1ccc(-c2ccc3nnc(-c4c(OC)ccc(Br)c4OC)n3c2)cc1 [Example 65]
assayed.system: breast cancer cell line T47D
log10(IC50): 2.76

compound: COc1ccc(-c2ccc3nnc(-c4ccccc4OC)n3c2)cc1OC [Example 31]
assayed.system: breast cancer cell line T47D
log10(IC50): 2.88

compound: COc1ccc(-c2cc(C)c3nnc(-c4ccccc4OC)n3c2)cc1 [Example 55]
assayed.system: breast cancer cell line T47D
log10(IC50): 2.41
